measuredOn: T1, hen egg-white lysozyme (hen, UniProt P00698 19-147)
T1 construct: also called HEL
measurementDescription: Biacore, HEL immobilised; Kd'' dissociation constant at steady state
observedProperty: pKd
Give only the number. pKd is defined as minus log10 of concentration in molar units.

Use the examples below as a reference point.
Q: Tell me the measured pKd of H4S(wt) (designed binder, Nanofitin derived from Sac7d (Sulfolobus acidocaldarius), H4 with Cys29 changed into Ser29; His-tagged; also called H4S protein; parental Nanofitin H4S(wt)) MRGSHHHHHHGSVKVKFFWNGEEKEVDTSKIVWVKRAGKSVLFIYDDNGKNGYGDVTEKDAPKELLDMLARAEREKKLN , please.
Result: 7.74

Q: Same for H4S cysteine mutant V21C (not conjugated) (designed binder, Free cysteine mutant, measured in reducing conditions) MRGSHHHHHHGSVKVKFFWNGEEKEVDTSKICWVKRAGKSVLFIYDDNGKNGYGDVTEKDAPKELLDMLARAEREKKLN
Result: 6.41

Kindly consider the entry below.
Q: Tell me the measured pKd of H4S(K24C) (not conjugated) (designed binder, Free cysteine mutant, measured in reducing conditions) MRGSHHHHHHGSVKVKFFWNGEEKEVDTSKIVWVCRAGKSVLFIYDDNGKNGYGDVTEKDAPKELLDMLARAEREKKLN , please.
Result: 6.98
